pIC50 reference
biological target: FL-SMARCA4 (Homo sapiens, UniProt P51532); assay: SMARCA4 ATPase activity assay (ADP-Glo, chicken mononucleosome substrate); settings: FL-SMARCA4 IC>50, Table 3c.2; ATPase assay, enzyme 5 nM, ATP 250 uM, chicken mononucleosome 10 nM, 30 min preincubation
Sequence (P51532 whole entry): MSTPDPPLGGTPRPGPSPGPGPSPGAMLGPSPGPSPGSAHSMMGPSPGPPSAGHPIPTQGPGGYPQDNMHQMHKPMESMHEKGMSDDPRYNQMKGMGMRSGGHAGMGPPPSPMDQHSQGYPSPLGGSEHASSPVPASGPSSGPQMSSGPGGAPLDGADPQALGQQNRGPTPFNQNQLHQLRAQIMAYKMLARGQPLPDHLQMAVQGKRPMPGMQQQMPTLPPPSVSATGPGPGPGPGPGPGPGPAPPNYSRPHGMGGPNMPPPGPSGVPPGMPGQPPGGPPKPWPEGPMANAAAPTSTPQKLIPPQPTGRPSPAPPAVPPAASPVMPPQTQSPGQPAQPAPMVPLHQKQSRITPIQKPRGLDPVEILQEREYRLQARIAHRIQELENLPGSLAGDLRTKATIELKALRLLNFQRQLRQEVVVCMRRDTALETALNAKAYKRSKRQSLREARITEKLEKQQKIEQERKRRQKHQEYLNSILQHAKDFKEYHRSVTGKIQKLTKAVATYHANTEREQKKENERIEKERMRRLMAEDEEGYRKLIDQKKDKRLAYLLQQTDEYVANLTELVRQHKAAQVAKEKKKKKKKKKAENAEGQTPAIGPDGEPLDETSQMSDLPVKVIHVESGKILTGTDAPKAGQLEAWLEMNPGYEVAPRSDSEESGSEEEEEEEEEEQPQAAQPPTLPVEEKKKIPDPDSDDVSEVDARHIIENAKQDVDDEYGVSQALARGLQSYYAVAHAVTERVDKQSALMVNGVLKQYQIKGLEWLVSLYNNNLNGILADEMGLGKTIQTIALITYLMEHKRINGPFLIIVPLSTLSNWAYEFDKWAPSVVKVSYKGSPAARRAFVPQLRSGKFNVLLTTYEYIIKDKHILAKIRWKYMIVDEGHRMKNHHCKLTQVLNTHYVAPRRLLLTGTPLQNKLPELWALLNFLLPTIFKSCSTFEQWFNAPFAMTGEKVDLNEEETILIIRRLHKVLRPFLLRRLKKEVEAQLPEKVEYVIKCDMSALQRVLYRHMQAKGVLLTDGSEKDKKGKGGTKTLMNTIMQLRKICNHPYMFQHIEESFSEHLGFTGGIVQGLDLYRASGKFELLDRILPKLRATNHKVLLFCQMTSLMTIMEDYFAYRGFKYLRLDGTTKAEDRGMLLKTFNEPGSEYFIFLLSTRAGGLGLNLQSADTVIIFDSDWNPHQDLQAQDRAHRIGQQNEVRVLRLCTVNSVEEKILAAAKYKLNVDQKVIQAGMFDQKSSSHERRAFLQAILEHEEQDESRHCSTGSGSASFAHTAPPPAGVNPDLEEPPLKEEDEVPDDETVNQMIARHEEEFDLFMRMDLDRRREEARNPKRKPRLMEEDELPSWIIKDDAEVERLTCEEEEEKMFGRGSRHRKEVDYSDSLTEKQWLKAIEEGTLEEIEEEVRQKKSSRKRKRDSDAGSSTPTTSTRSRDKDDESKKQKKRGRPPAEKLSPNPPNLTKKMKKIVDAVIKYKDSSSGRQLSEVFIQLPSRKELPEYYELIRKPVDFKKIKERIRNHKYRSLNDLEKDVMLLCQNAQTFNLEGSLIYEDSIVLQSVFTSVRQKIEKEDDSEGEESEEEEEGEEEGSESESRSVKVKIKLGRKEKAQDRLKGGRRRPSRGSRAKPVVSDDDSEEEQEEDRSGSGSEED
# pIC50 = -log10(concentration in molar units)

Below: 4 molecules and their reported pIC50.
So, O=C(Nc1cc(F)c(=O)n(CC(F)F)c1)c1cc(CC(F)(F)F)c(Cl)s1 [Compound 24c] ? Its pIC50 was 4.41

Noted for CC(=O)Nc1cc(C#Cc2cc(C(=O)Nc3cc(F)c(=O)n(CC(F)F)c3)sc2Cl)ccn1 [Compound 143c] : its pIC50 reads 8.09

Lookup result for COc1nc(C#Cc2cc(C(=O)Nc3cc(F)c(=O)n(CC(F)F)c3)sc2Cl)cs1 [Compound 107c] ; measured pIC50: 6.85

// pIC50 lookup, molecule = Cc1nc2cc(C#Cc3cc(C(=O)Nc4cc(F)c(=O)n(CC(F)F)c4)sc3Cl)ccc2[nH]1 [Compound 141c] , result: 7.22

More entries:
Record summary for O=C(Nc1cc(F)c(=O)n(CC(F)F)c1)c1cc(Cl)c(Cl)s1 [Compound 47c] : reported pIC50 = 6.75

pIC50 recorded for this molecule, CNC(=O)c1cccc(N2CC(c3cc(C(=O)Nc4cc(F)c(=O)n(CC(F)F)c4)sc3Cl)C2)c1 [Compound 176c] , is 5.04

Consider O=C(Nc1cc(F)c(=O)n(CC(F)F)c1)c1cc(C2CC(c3ccncc3)C2)c(Cl)s1 (stereo not drawn) [Compound 152c] . Its measured pIC50 is 4.43

Looking up COc1cccc(C#Cc2cc(C(=O)Nc3cc(F)c(=O)n(CC(F)F)c3)sc2Cl)c1 [Compound 42c] , I see its pIC50 listed as 6.32

// sample CN(C)Cc1cccc(C#Cc2cc(C(=O)Nc3cc(F)c(=O)n(CC(F)F)c3)sc2Cl)c1 [Compound 128c] , its pIC50 was 6.08

Reported pIC50 ( O=C(Nc1cc(F)c(=O)n(CC(F)F)c1)c1cc(C#Cc2ccc3c(c2)C(=O)NC3)c(Cl)s1 [Compound 145c] ) = 6.68

GET /value?item= O=C(Nc1cc(F)c(=O)n(CC(F)F)c1)c1cc(C#Cc2cccnn2)c(Cl)s1 [Compound 55c] &field=pIC50 returns 6.57

###

biological target: FL-SMARCA2 (full-length human SMARCA2 isoform 1) (Homo sapiens); construct: FLAG tag (YKDDDDK) (C); made in house; host or cells: Sf21 insect cells (baculovirus, pFastBacI); experiment: SMARCA2 ATPase activity assay (ADP-Glo, chicken mononucleosome substrate); type: biochemical; settings: Table 3.1; ATPase assay, enzyme 5 nM, ATP 250 uM, chicken mononucleosome 10 nM, 30 min preincubation
Sequence (P51531 with tags, fused parts or gaps): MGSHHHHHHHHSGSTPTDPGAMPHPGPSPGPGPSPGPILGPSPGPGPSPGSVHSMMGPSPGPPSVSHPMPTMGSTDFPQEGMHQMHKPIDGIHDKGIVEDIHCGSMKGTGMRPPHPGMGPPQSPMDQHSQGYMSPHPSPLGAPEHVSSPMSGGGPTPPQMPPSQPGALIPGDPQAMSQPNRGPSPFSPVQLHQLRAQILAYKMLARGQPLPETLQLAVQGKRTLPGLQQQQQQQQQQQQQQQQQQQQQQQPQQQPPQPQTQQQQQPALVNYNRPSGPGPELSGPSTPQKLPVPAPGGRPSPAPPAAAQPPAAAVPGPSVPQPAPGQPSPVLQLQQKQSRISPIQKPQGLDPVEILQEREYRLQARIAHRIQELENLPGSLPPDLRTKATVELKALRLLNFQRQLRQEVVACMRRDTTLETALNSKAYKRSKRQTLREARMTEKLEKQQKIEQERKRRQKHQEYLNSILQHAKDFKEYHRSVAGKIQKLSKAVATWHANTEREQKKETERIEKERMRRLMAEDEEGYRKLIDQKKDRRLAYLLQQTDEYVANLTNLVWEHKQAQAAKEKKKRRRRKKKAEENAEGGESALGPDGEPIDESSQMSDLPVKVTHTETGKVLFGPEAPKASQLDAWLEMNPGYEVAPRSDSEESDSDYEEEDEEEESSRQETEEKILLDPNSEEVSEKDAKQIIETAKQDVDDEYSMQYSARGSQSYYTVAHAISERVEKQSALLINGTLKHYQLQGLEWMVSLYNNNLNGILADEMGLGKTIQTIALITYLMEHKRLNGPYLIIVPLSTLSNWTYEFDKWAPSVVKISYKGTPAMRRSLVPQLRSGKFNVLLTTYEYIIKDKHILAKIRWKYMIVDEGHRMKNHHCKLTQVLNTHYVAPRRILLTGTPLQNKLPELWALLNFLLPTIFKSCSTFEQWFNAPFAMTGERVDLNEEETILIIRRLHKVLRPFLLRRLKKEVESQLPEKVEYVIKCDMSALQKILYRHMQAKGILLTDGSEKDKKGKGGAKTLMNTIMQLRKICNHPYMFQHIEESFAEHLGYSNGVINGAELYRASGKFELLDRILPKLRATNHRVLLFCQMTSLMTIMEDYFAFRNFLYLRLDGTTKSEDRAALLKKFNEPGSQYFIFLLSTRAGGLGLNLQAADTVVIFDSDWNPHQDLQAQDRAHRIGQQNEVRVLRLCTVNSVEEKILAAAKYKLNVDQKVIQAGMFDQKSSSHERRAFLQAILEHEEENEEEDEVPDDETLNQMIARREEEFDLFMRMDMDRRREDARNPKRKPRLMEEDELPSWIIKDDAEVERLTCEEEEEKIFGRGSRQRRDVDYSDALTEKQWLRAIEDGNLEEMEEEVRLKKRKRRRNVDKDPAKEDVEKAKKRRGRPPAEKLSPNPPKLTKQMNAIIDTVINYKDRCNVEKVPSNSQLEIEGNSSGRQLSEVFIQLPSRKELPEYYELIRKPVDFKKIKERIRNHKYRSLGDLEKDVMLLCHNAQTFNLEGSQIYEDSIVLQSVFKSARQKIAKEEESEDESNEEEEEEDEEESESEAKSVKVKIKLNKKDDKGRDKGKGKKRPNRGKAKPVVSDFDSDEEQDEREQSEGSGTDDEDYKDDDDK
Endpoint Label: pIC50
FYI, pIC50 means -log10 of a concentration in mol per litre.

Input `CCn1cc(NC(=O)c2cc(C#CCO)c(Cl)s2)ccc1=O` . Output pIC50: 5.56

Record `CCn1cc(NC(=O)c2ccc(Cl)n2C)ccc1=O` . Reported pIC50: 4.71

Please fill in: pIC50 reported for `Cn1c(C(=O)Nc2ccc(=O)n(CCF)c2)cc(Cl)c1Cl` = 5.88

The measured pIC50 associated with `N#Cc1cc(C(=O)Nc2cc(Cl)c(=O)n(CCF)c2)sc1Cl` reads 7.15

Short answer for `N#Cc1ncc(C(=O)Nc2cc(F)c(=O)n(CC(F)(F)F)c2)s1` : pIC50 was 7.69

***
Record summary for `N#Cc1cc(C(=O)Nc2cc(F)c(=O)n(CC(F)(F)F)c2)sc1Cl` : reported pIC50 = 7.14

Entry `O=C(Nc1cc(NCCc2cccnc2)c(=O)n(CCF)c1)c1cc(Cl)c(Cl)s1` ; pIC50 = 4.72

Consider `N#Cc1cc(C(=O)Nc2cc(F)c(=O)n(CC(F)(F)F)c2)sc1C#N` . Its measured pIC50 is 7.70

Entry under test: `N#Cc1sc(C(=O)Nc2ccc(=O)n(CC(F)(F)F)c2)cc1Cl` . Its pIC50 was 6.60

// recorded pIC50 for `CCn1cc(NC(=O)c2cc(Cl)c(Cl)s2)cc(Cl)c1=O` : 6.71

Reported pIC50 ( O=C(Nc1cc(F)c(=O)n(CCF)c1)c1cc(Cl)c(C(O)C(F)(F)F)s1 (centres unmarked) ) = 4.98

###

Reported IC50 by item:
biological target: FL-SMARCA4 (Homo sapiens, UniProt P51532); assay: SMARCA4 ATPase activity assay (ADP-Glo, chicken mononucleosome substrate); details: FL-SMARCA4 IC50
Your answer is read as µM, so omit the unit and give the number.

Answered examples (5):
Short answer for O=C(Nc1cc(F)c(=O)n(CC(F)F)c1)c1cc(C#CC23CC(CO)(C2)C3)c(Cl)s1 [Compound 135d] : IC50 was 0.334

Form: compound = CC(N)CC#Cc1cc(C(=O)Nc2cc(F)c(=O)n(CC(F)F)c2)sc1Cl (stereo not shown) [Compound 139d] ; IC50 = 6.7

Looking up O=C(Nc1cc(F)c(=O)n(CC(F)F)c1)c1cc(C#CC2CCS(=O)(=O)CC2)c(Cl)s1 [Compound 99d] , I see its IC50 listed as 0.244

Documented IC50 of Cn1cc(C#Cc2cc(C(=O)Nc3cc(C#N)c(=O)n(CC(F)F)c3)sc2Cl)cn1 [Compound 93d] : 0.147

IC50 in this record for N#Cc1sc(C(=O)Nc2cc(F)c(=O)n(CC(F)F)c2)cc1C#CC1CCOCC1 [Compound 102d] : 0.0464

***
Cc1cc(C(=O)Nc2cc(F)c(=O)n(CC(F)F)c2)sc1C(F)(F)F [Compound 80d] yielded IC50 of 1.14

The compound identified as O=C(Nc1cc(F)c(=O)n(CC(F)F)c1)c1cc(C#CC(=O)N2CCCC2)c(Cl)s1 [Compound 70d] registered its IC50 at 4.75

Entry under test: O=C(Nc1cc(F)c(=O)n(CC(F)F)c1)c1cc(C#CC2CCCN2)c(Cl)s1 (stereo not shown) [Compound 107d] . Its IC50 was 1.54

Entry under test: O=C(Nc1cc(F)c(=O)n(CC(F)F)c1)c1cc(OC(F)(F)F)c(C(F)(F)F)s1 [Compound 89d] . Its IC50 was 2.07

Looking up CCCn1nc(NC(=O)c2cc(Cl)c(Cl)s2)ccc1=O [Compound 22d] , I found its IC50 recorded as 28.9

###

biological target: FL-SMARCA2 (full-length human SMARCA2 isoform 1) (Homo sapiens); construct: FLAG tag (YKDDDDK) (C); made in house; host or cells: Sf21 insect cells (baculovirus, pFastBacI); assay: SMARCA2 ATPase activity assay (ADP-Glo, chicken mononucleosome substrate); assay type: biochemical; conditions: Table 3d.1; ATPase assay, enzyme 5 nM, ATP 250 uM, chicken mononucleosome 10 nM, 30 min preincubation; read-out: FL-SMARCA2 IC>50
Strictly below 0.5 µM in IC50: T. Otherwise: F.

Solved entries:
Q) Does the reported IC50 of the following molecule sit strictly below 0.5 µM? O=C(Nc1cc(F)c(=O)n(CC(F)F)c1)c1cc(C#Cc2ccc3nccn3c2)c(Cl)s1 [Compound 115d]
A) T

Q) Report whether reported IC50 is lower than 0.5 µM (strictly) for Cc1cc(NC(=O)c2cc(C#N)c(C(F)(F)F)s2)cn(CC(F)F)c1=O [Compound 75d]
A) F

---
Q) Just wondering, is IC50 of O=C(Nc1cc(F)c(=O)n(CC(F)F)c1)c1cc(C#CC2CCN(CC(F)(F)F)C2)c(Cl)s1 (centres unmarked) [Compound 110d] below 0.5 µM?
A) F

Q) Quick check: does Cc1cc(C(=O)Nc2cc(F)c(=O)n(CC(F)F)c2)sc1C(F)(F)F [Compound 80d] have IC50 under 0.5 µM?
A) T

Q) hey, is IC50 for O=C1C[C@@H](C#Cc2cc(C(=O)Nc3cc(F)c(=O)n(CC(F)F)c3)sc2Cl)CCN1 [Compound 62d] lower than 0.5 µM or not?
A) T

Q) Record CCn1c(Cl)c(NC(=O)c2cc(Cl)c(Cl)s2)ccc1=O [Compound 27d] : is its IC50 strictly below 0.5 µM?
A) F

Q) Does the reported IC50 of the following molecule sit strictly below 0.5 µM? O=C(Nc1cc(F)c(=O)n(CC(F)F)c1)c1cc(C#CCn2cnnc2)c(Cl)s1 [Compound 126d]
A) F

Q) Is IC50 of O=C1C[C@H](C#Cc2cc(C(=O)Nc3cc(F)c(=O)n(CC(F)F)c3)sc2Cl)CCN1 [Compound 63d] strictly below 0.5 µM?
A) T

Q) Find out if reported IC50 for CCn1cc(NC(=O)c2cc(Cl)c(Cl)s2)c(Cl)cc1=O [Compound 24d] is less than 0.5 µM
A) F

Q) Does O=C(Nc1cc(F)c(=O)n(CC(F)F)c1)c1cc(C#CC2CCCOC2)c(Cl)s1 (centres unmarked) [Compound 68d] have IC50 strictly under 0.5 µM?
A) T

Q) Determine whether this molecule shows IC50 lower than 0.5 µM (ties excluded): COc1ncc(F)cc1C(=O)Nc1cc(F)c(=O)n(CC(F)F)c1 [Compound 41d]
A) F

Q) Please check: IC50 for O=C(Nc1cc(F)c(=O)n(CC(F)F)c1)c1nc(Cl)c(Cl)[nH]1 [Compound 39d] , strictly under 0.5 µM or not?
A) F

Q) Decide: IC50 of O=C(Nc1cc(F)c(=O)n(CC(F)F)c1)c1cc(-c2ccco2)on1 [Compound 124d] strictly below 0.5 µM?
A) F

Q) Lab log: compare recorded IC50 with 0.5 µM; is it strictly lower for `Cc1cc(C)n(-c2ccc(C(=O)Nc3cn(C)c(=O)cc3C)cn2)n1` ?
A) F

Q) Does the reported IC50 of the following molecule sit strictly below 0.5 µM? O=C(Nc1cc(F)c(=O)n(CC(F)F)c1)c1cc(C#C[C@H]2CCC[C@@H](O)C2)c(Cl)s1 [Compound 120d]
A) T

Q) Lab note: IC50 threshold 0.5 µM. Does this molecule come in strictly under it? N#Cc1cc(C(=O)Nc2cc(C#N)c(=O)n(CC(F)F)c2)sc1C(F)(F)F [Compound 56d]
A) T
